Molecular target: Aryl hydrocarbon receptor (Homo sapiens) (UniProt P35869)
Sequence (P35869 whole entry, looked up): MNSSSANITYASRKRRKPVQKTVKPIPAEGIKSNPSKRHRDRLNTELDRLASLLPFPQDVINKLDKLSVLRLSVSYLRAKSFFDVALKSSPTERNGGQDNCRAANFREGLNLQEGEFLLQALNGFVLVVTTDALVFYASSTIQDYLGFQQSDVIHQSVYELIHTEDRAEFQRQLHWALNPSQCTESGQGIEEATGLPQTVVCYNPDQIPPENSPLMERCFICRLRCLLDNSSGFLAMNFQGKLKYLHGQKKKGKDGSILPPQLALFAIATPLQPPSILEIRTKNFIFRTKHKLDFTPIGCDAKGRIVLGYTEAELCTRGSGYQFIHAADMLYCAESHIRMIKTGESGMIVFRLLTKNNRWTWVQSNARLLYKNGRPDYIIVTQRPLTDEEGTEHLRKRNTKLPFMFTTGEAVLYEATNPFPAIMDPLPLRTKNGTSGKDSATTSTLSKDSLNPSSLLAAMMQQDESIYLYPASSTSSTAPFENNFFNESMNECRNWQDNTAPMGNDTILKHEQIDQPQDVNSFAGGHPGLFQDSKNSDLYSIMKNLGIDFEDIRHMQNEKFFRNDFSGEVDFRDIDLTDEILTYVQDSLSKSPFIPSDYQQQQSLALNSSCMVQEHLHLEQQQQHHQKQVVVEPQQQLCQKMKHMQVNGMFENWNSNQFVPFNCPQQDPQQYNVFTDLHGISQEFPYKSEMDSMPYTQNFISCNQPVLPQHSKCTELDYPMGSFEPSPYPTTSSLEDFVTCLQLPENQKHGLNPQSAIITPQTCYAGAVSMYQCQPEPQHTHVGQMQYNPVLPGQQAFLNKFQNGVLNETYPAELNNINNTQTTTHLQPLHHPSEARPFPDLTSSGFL
Assay: AHR activators, primary screen, cell-based, luminescence, luciferase reporter, human (AID 2796)
Conditions: AHR-responsive luciferase reporter cells, at 5 µM
Screen size: about 320,000 compounds; about 8,000 (2.5%) were called active. Rule as the data show it: active = activation above about 47%; inactive = the rest. The entries come from a sample that favours actives as a whole.
Outcomes you can answer with include only these: active, inactive

Hi, do you know how `Cc1ccc(C(=O)NNC(=O)c2cc3cc4ccccc4nc3s2)cc1` came out in this test?
active

Hi, do you know how `Cc1ccc(NC(=O)c2sc3nc(N)c(C#N)cc3c2N)cc1` came out in this test?
active

Hi, do you know how `COCCCNc1nc2c(-c3cccc(C)c3)nnn2c2ccc(Cl)cc12` came out in this test?
active

Hi, do you know how `CCCNC(=O)N1CCC(c2ccc3c(c2)OCO3)CC1` came out in this test?
inactive

Hi, do you know how COc1ccc(S(=O)(=O)NC(C)c2ccccc2)cc1C(=O)N1CCCCC1 (stereo not given) came out in this test?
inactive

Hi, do you know how `COc1ccc(C(=O)NC(=S)Nc2ccc(Cl)cn2)cc1OC` came out in this test?
inactive

Hi, do you know how `COCCCNc1nc2c(-c3cccc(C(F)(F)F)c3)nnn2c2ccccc12` came out in this test?
inactive

Hi, do you know how `Cc1ccc2occ(/C=N/NC(=O)c3ccccc3C)c(=O)c2c1` came out in this test?
inactive

Hi, do you know how `Cn1cc(CCC(=O)NC2CC2)c2ccccc21` came out in this test?
inactive

Hi, do you know how `O=C(CCNS(=O)(=O)c1ccccc1)NCCSc1ccc(Br)cc1` came out in this test?
inactive

Hi, do you know how `O=C1CCN(Cc2ccc([N+](=O)[O-])cc2)CCN1[C@H](CO)Cc1ccccc1` came out in this test?
inactive

Hi, do you know how `O=C(OCC(=O)N1CCCCC1)c1ccc(OC(F)(F)F)cc1` came out in this test?
inactive

Hi, do you know how `O=C(NCc1cccnc1)c1ccc(CS(=O)(=O)c2ccc(Br)cc2)o1` came out in this test?
active

Hi, do you know how `Cc1ccc(N2C(=O)N3[C@@H]4c5ccccc5OC[C@@H]4[C@@H](c4ccccc4)[C@@]3(C)C2=O)cc1` came out in this test?
inactive

Hi, do you know how `CCOCCCN(C)C1CCN(C(=O)c2oc3ccccc3c2NC(=O)COc2cccc(C)c2)CC1` came out in this test?
inactive

Hi, do you know how CC(=O)Nc1ccc(S(=O)(=O)NCC2CCC(C(=O)NCCc3ccccc3)CC2)cc1 (stereo not given) came out in this test?
inactive

Hi, do you know how `COc1ccc(CCNC(=O)CN2C(=O)CCSc3ccccc32)c(OC)c1` came out in this test?
inactive

Hi, do you know how `CCOC(=O)N1CCC(Nc2c(NCCCN3CCN(c4ccc(OC)cc4)CC3)c(=O)c2=O)CC1` came out in this test?
inactive

Hi, do you know how `Nc1nc(O)c(CC(=O)O)s1` came out in this test?
inactive

Hi, do you know how `Cc1ccc(C(=O)NNc2ncnc3ccccc23)cc1` came out in this test?
inactive

Hi, do you know how `CCc1ccc2nc3sc(C(=O)Nc4nnc(CC)s4)c(N)c3cc2c1` came out in this test?
inactive

Hi, do you know how CC(OC(=O)c1cc2ccccc2[nH]1)C(=O)N(C)c1ccccc1 (stereo not given) came out in this test?
inactive

Hi, do you know how `COc1c(Cl)cc(C(=O)Nc2ccc(Cl)cn2)cc1Cl` came out in this test?
active

Hi, do you know how `CCCOc1ccc(Cc2c(Cl)nc(SC)nc2NC)cc1` came out in this test?
inactive

Hi, do you know how CCc1ccc(OCC(=O)OC(C)C(=O)NC2CC2)cc1 (stereo not given) came out in this test?
inactive

Hi, do you know how `Cc1cccc(NC(=S)NCc2ccc3[nH]c4c(c3c2)CCCC4)c1` came out in this test?
active

Hi, do you know how Cn1c(=O)c2c(ncn2CC(COCc2ccccc2Cl)OCc2ccccc2Cl)n(C)c1=O (stereo not given) came out in this test?
inactive

Hi, do you know how `Cc1cccc(C(=O)N2CCN(S(=O)(=O)N3CCCCC3)CC2)c1` came out in this test?
inactive

Hi, do you know how `CC(C)OCCCNC(=S)N1CCC(C(=O)c2ccc3c(c2)OCCO3)CC1` came out in this test?
inactive

Hi, do you know how `Cc1nnc(SCC(=O)Nc2cccc(N)c2)n1-c1ccccc1` came out in this test?
inactive

Hi, do you know how `COc1cccc(OC)c1C(=O)Nc1c(C(=O)N2CCN(c3ccccn3)CC2)oc2ccccc12` came out in this test?
inactive

Hi, do you know how O=C(NCc1cccc(Cl)c1)C1CCC(=O)N(C2CC2)C1 (stereo not given) came out in this test?
inactive

Hi, do you know how `COC(=O)Cn1nc(-c2ccccc2)c2cc(Cl)ccc21` came out in this test?
inactive

Hi, do you know how COc1ccccc1C(=O)N(Cc1ccc(C)o1)C1CCS(=O)(=O)C1 (stereo not given) came out in this test?
inactive

Hi, do you know how COc1ccc(CNC(=O)COC(=O)C(CCSC)N2C(=O)c3ccccc3C2=O)cc1 (stereo not given) came out in this test?
inactive

Hi, do you know how `O=C(Nc1ccc(NC(=O)c2ccco2)c(Cl)c1)c1cccc([N+](=O)[O-])c1` came out in this test?
inactive

Hi, do you know how COc1ccccc1CN1CC(C(=O)NCCc2cn[nH]c2)CCC1=O (stereo not given) came out in this test?
inactive

Hi, do you know how `Cc1ccc(C(=O)NNC(=O)c2cccs2)cc1` came out in this test?
inactive

Hi, do you know how `COc1cc(NC(=O)c2cc([N+](=O)[O-])ccc2Br)ccc1NC(=O)c1ccco1` came out in this test?
inactive

Hi, do you know how `C#CCNC(=O)C1=C[C@@H](c2ccccc2)[C@H](CCCO)[C@@H](OCC)O1` came out in this test?
inactive

Hi, do you know how `Cc1[nH]nc(SCC(=O)NCC(C)C)c1[N+](=O)[O-]` came out in this test?
inactive

Hi, do you know how `N#CCC(=O)NC(=O)NCC1CC1` came out in this test?
inactive

Hi, do you know how `Cc1nnc(C)c2c(C)n(N)c(C)c12` came out in this test?
inactive

Hi, do you know how `COc1ccc(C(=O)N/N=C(\C)CC(=O)Nc2ccc(Cl)cn2)cc1` came out in this test?
inactive

Hi, do you know how `O=C(O)CCC(=O)NCc1ccc2[nH]c3c(c2c1)CCCC3` came out in this test?
inactive

###

Biological target: Aryl hydrocarbon receptor (Homo sapiens)
Assay: AHR activators, primary screen, cell-based, luminescence, luciferase reporter, human (AID 2796)
Settings: AHR-responsive luciferase reporter cells, at 5 µM, active compounds read high
Among all 320,000 compounds or so, about 8,000 (2.5%) were called active. This excerpt belongs to a sample that is enriched for actives.
Label met when activation is at or above 10%; otherwise label not met.

Is reported activation greater than or equal to 10% here: `Cc1cc2c(=O)n(C)c(SCC(=O)c3cc4ccccc4o3)nc2s1`
met

Is reported activation greater than or equal to 10% here: `N#Cc1c(N2CCCCC2)nc(N)c2c(N)nc(SCC(=O)O)cc12`
not met

Is reported activation greater than or equal to 10% here: `COc1cccc(OC)c1C(=O)Nc1ccc(Cc2ccncc2)cc1`
met

Is reported activation greater than or equal to 10% here: `COc1cc2ccccc2cc1C(=O)N1CCOCC1`
not met

Is reported activation greater than or equal to 10% here: `COc1cccc(OC)c1C(=O)Nc1ccc(N2CCCCC2)cc1`
met

Is reported activation greater than or equal to 10% here: CC(=O)Nc1ccc(S(=O)(=O)NC(C)C(=O)OCCOc2ccc(F)cc2)cc1 (configuration not stated)
not met

Is reported activation greater than or equal to 10% here: CN1CCN(C(CNS(=O)(=O)c2cccs2)c2cccnc2)CC1 (configuration not stated)
not met

Is reported activation greater than or equal to 10% here: `COc1ccccc1/C=C/C1=NC(=C\N(C)C)/C(=O)O1`
met

Is reported activation greater than or equal to 10% here: Cc1cccc(NC(=O)N(Cc2cc3cc(C)cc(C)c3[nH]c2=O)CC2COCCO2)c1 (configuration not stated)
met

Is reported activation greater than or equal to 10% here: `COc1cccc(NC(=O)COc2cc(C)cc3oc(=O)cc(C)c23)c1`
met

Is reported activation greater than or equal to 10% here: COc1ccc(CC(=O)OC(C)C(=O)Nc2ccc(S(N)(=O)=O)cc2)cc1 (configuration not stated)
not met

Is reported activation greater than or equal to 10% here: O=C1/C(=C/c2ccc3c(c2)OCO3)Oc2cc(OCC(=O)N3CC(O)C[C@H]3C(=O)O)ccc21 (some centres not stated)
not met

Is reported activation greater than or equal to 10% here: `COc1cc2ccccc2cc1C(=O)Nc1ccc(N2CCOCC2)cc1`
met

Is reported activation greater than or equal to 10% here: Cc1ccc2[nH]c(=O)c(CN(CC3COCCO3)C(=O)Nc3ccccc3C)cc2c1 (configuration not stated)
not met

Is reported activation greater than or equal to 10% here: `Cc1ccccc1Nc1nnc(SCC(=O)c2cc3ccccc3o2)s1`
met

Is reported activation greater than or equal to 10% here: `CCCCn1nc(C(=O)Nc2cccc(C(=O)NC3CC3)c2)c2ccccc2c1=O`
not met

Is reported activation greater than or equal to 10% here: CCC1CCCCN1CCNC(=O)c1[nH]c(C)c(C(C)=O)c1C (configuration not stated)
not met

Is reported activation greater than or equal to 10% here: COc1ccc2[nH]c(=O)c(CN(CC3CCCO3)C(=O)Nc3ccccc3)cc2c1 (configuration not stated)
not met

Is reported activation greater than or equal to 10% here: `CC(C)c1ccc(Nc2ncccc2C#N)cc1`
met

Is reported activation greater than or equal to 10% here: `COc1ccccc1N(C)S(=O)(=O)c1ccc(Cl)c(C(=O)Nc2ccncc2)c1`
met

Is reported activation greater than or equal to 10% here: `O=C(Nc1ccncc1)c1ccc(Cl)c([N+](=O)[O-])c1`
not met

Is reported activation greater than or equal to 10% here: Cc1cccc(C)c1NC(=O)C1(C)c2cccc[n+]2CC(=O)N1Cc1cccs1 (configuration not stated)
not met
